- tgt: T1, human CD30 (commercial, conjugated to digoxigenin) (human, UniProt P28908 19-379, limits assumed, conjugated to digoxigenin (DIG))
- T1 sequence (looked up): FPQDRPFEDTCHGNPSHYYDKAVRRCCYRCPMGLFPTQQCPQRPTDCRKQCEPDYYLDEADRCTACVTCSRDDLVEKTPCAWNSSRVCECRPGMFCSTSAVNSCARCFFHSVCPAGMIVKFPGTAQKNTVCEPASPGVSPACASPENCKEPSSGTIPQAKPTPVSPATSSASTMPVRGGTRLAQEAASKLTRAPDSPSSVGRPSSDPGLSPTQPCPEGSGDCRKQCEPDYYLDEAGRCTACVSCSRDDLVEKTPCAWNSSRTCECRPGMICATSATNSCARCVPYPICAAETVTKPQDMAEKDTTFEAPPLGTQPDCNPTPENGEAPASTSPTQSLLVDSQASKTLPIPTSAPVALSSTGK
- measurement-description: AlphaScreen competition

>  <binder>
AC10 H3.3/L3 (antibody, IgG1, name in Kabat numbering, V domains shown) VH: QMQLVQSGPEVKKPGASVKVSCKASGYTFTDYYITWVRQAPGQGLEWMGWIYPGSGNTKYNEKFQGRFVFSVDTSASTAYLQISSLKAEDTAVYFCANYGNYWFAYWGQGTLVTVSS VL: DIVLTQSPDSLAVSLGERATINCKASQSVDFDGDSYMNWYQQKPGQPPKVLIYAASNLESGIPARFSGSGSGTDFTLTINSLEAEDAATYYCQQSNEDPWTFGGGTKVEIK

>  <Fold IC50 vs H3/L3 [fold]>
0.68

$$$$
